Assay: small-molecule microarray binders of probe aWnt5a, primary screen, biochemical, biotinylated probe, 635/667 nm fluorescence (AID 1113);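 note: score merges 667 nm fluorescence intensity with signal-to-noise per printed feature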
Settings: higher = more signal
assay-endpoint: composite z-score
Numbers only.

Solved cases (5 shown):
Provide measured composite z-score value, entry: C=CCOC(=O)[C@@H]1[C@H]2C(=O)O[C@H](c3ccccc3)[C@H](c3ccccc3)N2[C@H](c2ccc(OCCOC(=O)[C@H]3C[C@H]4C(=O)N5CCC[C@H]5C(=O)N4[C@H]3c3ccc(O)cc3)cc2)[C@@]12C(=O)Nc1ccccc12
0.0047

Provide measured composite z-score value, entry: N#Cc1ccc(NN2C(C(O)c3ccc(I)cc3)C=CC3C(=O)N(c4ccccc4)C(=O)C32)cc1 (stereo unspecified)
0.0803

Provide measured composite z-score value, entry: C=C[C@H](OC)[C@@H](OC(=O)Nc1ccc(SC)cc1)c1ccc(O)c(F)c1
-0.0486

Provide measured composite z-score value, entry: CC(=O)NCCCC[C@@H]1NC(=O)[C@H]2C[C@@H](C(=O)NCCCCCCN(C)C)[C@@H](c3ccc(O)cc3)N2C1=O
-0.154

Provide measured composite z-score value, entry: COc1cc2c(cc1OC)CN(C(=O)[C@@H]1[C@H]3C(=O)O[C@H](c4ccccc4)[C@H](c4ccccc4)N3[C@H](c3ccccc3OCCO)[C@@]13C(=O)Nc1ccccc13)CC2
0.213

More entries:
Provide measured composite z-score value, entry: CC(=O)NCCCC[C@@H]1NC(=O)[C@@H]2C[C@H](C(=O)NCc3ccc(F)cc3)[C@H](c3cccc(OCCO)c3)N2C1=O
-0.0836

* * *

Molecular target: Luciferin 4-monooxygenase (Photinus pyralis)
Assay: firefly luciferase enzyme inhibitors, primary screen, biochemical, luminescence, purified enzyme, 2006 set (AID 1141);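 note: cell-free assay with purified firefly luciferase at 100 ng per well in PBS; test concentration not given here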
Details: SteadyGlo luminescence, 30 min, higher = more signal, called active from +8 up or from −8 down
Calls of active or inactive are those of the source.
assay-endpoint: z-score

Solved cases (2 shown):
Provide measured z-score value, entry: COc1ccc(CCNC(=O)[C@@]2(c3ccc([N+](=O)[O-])cc3)CC(=O)N(C(C)C)[C@@H]2c2ccc(CO)cc2)cc1
-0.939 (inactive)

Provide measured z-score value, entry: COC(=O)C[C@H]1O[C@]2(C(=O)N(Cc3ccccc3)c3ccc(I)cc32)[C@@H](C)[C@@H]1[Si](C)(C)c1ccc(OC)cc1
0.417 (inactive)

Provide each entry's z-score from the list below.
1. C=C(/C(=C/C[C@@H](OC(=O)c1ccncc1)c1ccc(CO)o1)c1cnc2ccccc2c1)C(C)C
2. COc1cc([C@@H]2N[C@H](C(=O)O)Cc3c2[nH]c2ccccc32)cc(OC)c1OC
3. C[C@]1(C(=O)NCc2ccccc2)c2ccccc2C(=O)N(Cc2cc(C(F)(F)F)cc(C(F)(F)F)c2)[C@H]1c1ccc(CO)cc1
4. C=C(CCCC)/C(=C/C[C@@H](OC(=O)c1ccncc1)c1ccc(CO)o1)c1cnc2ccccc2c1

1: -4.43 (inactive); 2: -0.538 (inactive); 3: -0.543 (inactive); 4: -3.5 (inactive)

* * *

Assay: small-molecule microarray binders of probe aLefty2, primary screen, biochemical, biotinylated probe, 635/667 nm fluorescence (AID 1094);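 note: score merges spot fluorescence near 667 nm with spot signal-to-noise ratio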
Conditions: higher = more signal
assay-endpoint: composite z-score
Numbers only.

Provide each entry's composite z-score from the list below.
1. CO[C@H]1COC(=O)[C@H](C)NC(=O)CC=C[C@@H](C)[C@H](NS(=O)(=O)c2ccc(C)cc2)COC(=O)[C@@H](OCc2ccccc2)C=C[C@@H]1C
2. CC/C=C/C(=O)N(C[C@@H]1CCCO1)[C@@H]1CC(C(=O)NCCO)=C[C@H](Oc2c(I)cc(CO)cc2OC)[C@H]1O
3. [N-]=[N+]=NCc1ccccc1C[C@@]1(C(=O)N2CCOCC2)N=C(c2ccc(OCCCO)cc2)O[C@@H]1c1ccccc1N=[N+]=[N-]
4. O=C(N1CCCCC1)[C@@]1(CCS(=O)(=O)c2ccccc2)N=C(c2ccc(OCCCO)cc2)O[C@H]1c1ccccc1

[-0.316, 0.0612, 0.557, 0.0971]

Provide each entry's composite z-score from the list below.
1. CC(C)[C@H]1NC(=O)[C@@]23C(=O)N[C@@H](Cc4ccccc4)C2[C@H](C)[C@@]2(C)O[C@H]2C3/C=C/C/C=C\CNC(=O)[C@H](C)NC1=O (some centres undefined)
2. C#CCCCON=C1C[C@@H](O)[C@@H](O)[C@@H]2[C@@H]3C(=O)N(Cc4ccc5c(c4)OCO5)C(=O)[C@@H]3CC[C@@H]12
3. COc1ccc([Si](C)(C)[C@H]2[C@H](CC(=O)N3Cc4ccccc4C[C@H]3CO)O[C@@]3(C(=O)N(Cc4cccc(N5CCOC5=O)c4)c4ccccc43)[C@@H]2C)cc1

1: -0.287; 2: -0.0367; 3: 0.0939

Provide each entry's composite z-score from the list below.
1. O=C1C2C=CC(C(O)c3ccccc3)N(n3cnnc3)C2C(=O)N1Cc1ccccc1 (centres undefined)
2. C=CCN(C(=O)C1N(c2ccc(CCO)cc2)C(=O)C2C(C(=O)O)C3C=CC21O3)C(C)(C)C (centres undefined)
3. COC(=O)C[C@H]1O[C@]2(C(=O)N(C)c3ccccc32)[C@@H](C)[C@@H]1[Si](C)(C)c1ccc(OC)cc1
4. CC[C@H]1C2=C3C(CC[C@H]4C(OC)OC[C@](C)([C@@H]34)N(C(=O)OC(C)(C)C)C2)C(CO)C1CO (some centres undefined)
5. COCCOC(=O)N1C(=O)[C@@]2(c3cc(C#CCNC(N)=O)ccc31)[C@H](c1ccccc1OCCO)N1[C@H](c3ccccc3)[C@H](c3ccccc3)OC(=O)[C@H]1[C@@H]2C(=O)NC[C@H](O)c1ccccc1
6. CN1CCC(CCCO)=CC1C1CC1 (centres undefined)
7. O=C1O[C@H](c2ccccc2)[C@H](c2ccccc2)N2[C@H]1[C@@H](C(=O)NC[C@H](O)c1ccccc1)[C@]1(C(=O)Nc3ccc(C#CC4=CCCCC4)cc31)[C@H]2c1ccc(OCCO)cc1

1: 0.116; 2: -0.014; 3: -0.0667; 4: 0.762; 5: -0.0977; 6: -0.308; 7: -0.104

* * *

Molecular target: Albumin (Bos taurus) (UniProt P02769)
Sequence (P02769 whole entry, looked up): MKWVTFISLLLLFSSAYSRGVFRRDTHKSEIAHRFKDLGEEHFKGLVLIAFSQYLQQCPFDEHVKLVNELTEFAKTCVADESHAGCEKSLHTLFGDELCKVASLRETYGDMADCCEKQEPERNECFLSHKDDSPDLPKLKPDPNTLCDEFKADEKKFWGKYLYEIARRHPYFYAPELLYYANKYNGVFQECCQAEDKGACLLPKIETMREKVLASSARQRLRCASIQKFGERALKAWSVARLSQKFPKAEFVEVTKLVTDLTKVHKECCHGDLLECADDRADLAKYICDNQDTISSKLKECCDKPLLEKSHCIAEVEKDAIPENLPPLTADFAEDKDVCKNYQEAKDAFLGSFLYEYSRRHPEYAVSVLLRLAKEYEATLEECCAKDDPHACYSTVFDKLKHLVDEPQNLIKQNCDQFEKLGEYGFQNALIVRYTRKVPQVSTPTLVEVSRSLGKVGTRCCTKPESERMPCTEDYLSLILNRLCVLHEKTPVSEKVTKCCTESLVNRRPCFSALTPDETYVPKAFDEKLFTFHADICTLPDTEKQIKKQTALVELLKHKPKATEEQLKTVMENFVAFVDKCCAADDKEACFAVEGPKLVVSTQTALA
Assay: bovine serum albumin binders on microarray, profiling panel, artefact control for SMM control protein annotation, biochemical, small-molecule microarray, Alexa647 label, 635/667 nm fluorescence (AID 1118);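 note: score merges 667 nm emission intensity and signal-to-noise per printed compound spot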
Details: BSA-A647 binding, fluorescence 635 nm, higher = more signal
assay-endpoint: composite z-score
Numbers only.

Provide measured composite z-score value, entry: [N-]=[N+]=Nc1ccccc1C[C@@]1(C(=O)N2CCOCC2)N=C(c2ccc(OCCCO)cc2)O[C@@H]1c1ccccc1N=[N+]=[N-]
0.873

Provide each entry's composite z-score from the list below.
1. CCOC(=O)C1=CC[C@@H](c2ccc(-c3ccc(OCc4ccccc4)cc3)c(OC)c2)N(S(=O)(=O)c2ccc(C)cc2)[C@H]1c1ccccc1
2. C=CC[C@]1(C(=O)O)N=C(c2ccc(OCCCO)cc2)O[C@H]1c1ccccc1N=[N+]=[N-]

1: 0.713; 2: 0.548

* * *

Hi there, I'd appreciate the recorded composite z-score for every entry that follows.
Target: Fibroblast growth factor 2 (Homo sapiens)
Experiment: FGF2 binders on small-molecule microarrays, primary screen, biochemical, small-molecule microarray, 635/667 nm fluorescence (AID 1133)
Conditions: small-molecule microarray binding, FGF2, fluorescence 635/667; higher = more signal
One number for each entry.

Provide each entry's composite z-score from the list below.
1. C=CCNC(=O)[C@H]1[C@@H]2C(=O)O[C@@H](c3ccccc3)[C@@H](c3ccccc3)N2[C@@H](c2ccc(O)cc2)[C@]12C(=O)Nc1ccc(C#CCNC(N)=O)cc12
2. CO[C@H]1COC(=O)CC=C[C@H](C)[C@@H](OC)COC(=O)[C@H](Cc2ccccc2)NC(=O)CC=C[C@@H]1C
3. CC[C@@H]1C=C(C(=O)O)[C@H](c2ccccc2)N1S(=O)(=O)c1ccc([N+](=O)[O-])cc1

-0.415
1.34
-0.715

* * *

Assay: CREB reporter modulators without forskolin, primary screen, cell-based, PC12, CRE-LacZ reporter, unstimulated (AID 1145)
Settings: no forskolin, luminescence, 4.5 h, higher = more signal, called active from +8 up or from −8 down
assay-endpoint: z-score
Give bare numbers.

Provide measured z-score value, entry: C=C[C@H](OC)[C@@H](OC(=O)Nc1ccc(SC)cc1)c1ccc(OC)c(O)c1
-0.113

Provide each entry's z-score from the list below.
1. CC(C)CNC(=O)[C@@]1(C)c2ccccc2C(=O)N(Cc2ccc(OC(F)(F)F)cc2)[C@H]1c1ccc(CO)cc1
2. CO[C@H]1O[C@H](CO)[C@@H](OC(=O)Nc2ccc3c(c2)OCO3)[C@H](OC(=O)Nc2ccccc2)[C@@H]1OC(=O)Nc1ccccc1
3. CC(C)N1CC=CC23O[C@@H]4/C=C\CCCOC(=O)C4[C@H]2C(=O)N(CCCCCO)[C@@H]3C1=O (some centres undefined)
4. C=CC[C@]1(C(=O)OC)N=C(c2ccc(OCCCO)cc2)O[C@H]1c1ccccc1CN=[N+]=[N-]
5. CCC#CCN(Cc1ccccc1Br)[C@H](/C=C/c1ccccc1)[C@@H](O)Cc1ccccc1
6. COc1cc(CO)cc(I)c1O[C@H]1C=C(C(=O)NCCO)C[C@@H](NCCc2c[nH]c3ccccc23)[C@@H]1O
7. COCCOC(=O)N1C(=O)[C@@]2(c3cc(C#CCC(C(=O)OC)C(=O)OC)ccc31)[C@H](C(=O)N1CCN(c3ncccn3)CC1)[C@H]1C(=O)O[C@H](c3ccccc3)[C@H](c3ccccc3)N1[C@@H]2c1ccc(O)cc1

0.0279
0.605
0.0564
5.1
2.94
2.29
-0.671

Provenance of the data: PubChem BioAssay
